Tested on: clinically isolated HIV strain r13363 harboring several mutations
Experiment: Cellular anti-viral assay in HIV-infected MT4-LTR-EGFP cells (GFP reporter), clinically isolated mutant strain
Type: cell-based
Conditions: Human immunodeficiency virus 1, read-out: HIV-AVE-MT4LTREGFP-r13363 pEC50 (converted)
Protocol: Because of the increasing emergence of drug resistant HIV strains, the present compound was also tested for its potency against a clinically isolated HIV strain harboring several mutations. […] HIV- or mock-infected MT4-LTR-EGFP cells were incubated for three days in the presence of various concentrations of the compound according to the invention. […] At the end of the incubation period, the GFP signal was measured. […]

chemical.structure	EC50 / µM
CC(C)CN(C[C@@H](O)[C@H](Cc1ccccc1)NC(=O)O[C@H]1CCOC1)S(=O)(=O)c1ccc(N)cc1	10
Cc1c(O)cccc1C(=O)N[C@@H](CSc1ccccc1)[C@H](O)CN1C[C@H]2CCCC[C@H]2C[C@H]1C(=O)NC(C)(C)C	1.58
Cc1cccc(C)c1OCC(=O)N[C@@H](Cc1ccccc1)[C@@H](O)C[C@H](Cc1ccccc1)NC(=O)[C@H](C(C)C)N1CCCNC1=O	0.631
CC(C)c1nc(CN(C)C(=O)N[C@H](C(=O)N[C@@H](Cc2ccccc2)C[C@H](O)[C@H](Cc2ccccc2)NC(=O)OCc2cncs2)C(C)C)cs1	10
CC(C)(C)NC(=O)[C@@H]1CN(Cc2cccnc2)CCN1C[C@@H](O)C[C@@H](Cc1ccccc1)C(=O)N[C@H]1c2ccccc2C[C@H]1O	0.398

Attribution: patent US8318779B2
